Data credit: the supplement of paper PMC12783771

B1: library; numbered along this chain (parent)
chain: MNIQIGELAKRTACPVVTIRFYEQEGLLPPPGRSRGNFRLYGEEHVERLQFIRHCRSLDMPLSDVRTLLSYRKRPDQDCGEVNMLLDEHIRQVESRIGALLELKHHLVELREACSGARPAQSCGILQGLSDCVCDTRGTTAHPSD

variants of: B1; test: sfGFP reporter fluorescence (15 h) (µM FITC); higher = stronger transcriptional activation; conditions: library round: Round 0; ligand: 1 µM Pb
Bucketed by reported sfGFP reporter fluorescence, buckets being low interval = under 0.07, middle interval = from 0.07 up to 0.08, high interval = 0.08 and over

[
  {
    "variant identifier": "V16A",
    "qualitative label": "middle interval"
  },
  {
    "variant identifier": "D131S",
    "qualitative label": "high interval"
  },
  {
    "variant identifier": "G36D",
    "qualitative label": "low interval"
  },
  {
    "variant identifier": "P61N G128I",
    "qualitative label": "high interval"
  },
  {
    "variant identifier": "L68Y",
    "qualitative label": "middle interval"
  },
  {
    "variant identifier": "E102A",
    "qualitative label": "middle interval"
  },
  {
    "variant identifier": "Y22H",
    "qualitative label": "low interval"
  },
  {
    "variant identifier": "G36A",
    "qualitative label": "high interval"
  },
  {
    "variant identifier": "L85Y",
    "qualitative label": "low interval"
  },
  {
    "variant identifier": "L68M",
    "qualitative label": "high interval"
  },
  {
    "variant identifier": "V46Y",
    "qualitative label": "high interval"
  },
  {
    "variant identifier": "R111I",
    "qualitative label": "low interval"
  },
  {
    "variant identifier": "M60L P61N K104V",
    "qualitative label": "high interval"
  },
  {
    "variant identifier": "N37A",
    "qualitative label": "middle interval"
  },
  {
    "variant identifier": "V46M",
    "qualitative label": "high interval"
  },
  {
    "variant identifier": "M60L G128I",
    "qualitative label": "high interval"
  },
  {
    "variant identifier": "F21C",
    "qualitative label": "low interval"
  },
  {
    "variant identifier": "G128Y",
    "qualitative label": "high interval"
  },
  {
    "variant identifier": "P15C",
    "qualitative label": "high interval"
  },
  {
    "variant identifier": "L85E",
    "qualitative label": "low interval"
  },
  {
    "variant identifier": "D76A",
    "qualitative label": "low interval"
  },
  {
    "variant identifier": "R111V",
    "qualitative label": "middle interval"
  },
  {
    "variant identifier": "R111A",
    "qualitative label": "high interval"
  },
  {
    "variant identifier": "I90M",
    "qualitative label": "low interval"
  },
  {
    "variant identifier": "L68K",
    "qualitative label": "low interval"
  },
  {
    "variant identifier": "E7M",
    "qualitative label": "high interval"
  },
  {
    "variant identifier": "V46P",
    "qualitative label": "low interval"
  },
  {
    "variant identifier": "L107C",
    "qualitative label": "high interval"
  },
  {
    "variant identifier": "L126P",
    "qualitative label": "low interval"
  },
  {
    "variant identifier": "I3L",
    "qualitative label": "middle interval"
  },
  {
    "variant identifier": "Y22C",
    "qualitative label": "low interval"
  },
  {
    "variant identifier": "V16W",
    "qualitative label": "low interval"
  },
  {
    "variant identifier": "F21L",
    "qualitative label": "low interval"
  },
  {
    "variant identifier": "R39H",
    "qualitative label": "low interval"
  },
  {
    "variant identifier": "I97N",
    "qualitative label": "low interval"
  },
  {
    "variant identifier": "K104Y",
    "qualitative label": "high interval"
  },
  {
    "variant identifier": "M60L D64K",
    "qualitative label": "high interval"
  },
  {
    "variant identifier": "R66A",
    "qualitative label": "middle interval"
  }
]
